Target: T1, human ferroportin (SLC40A1) fused in frame with GFP, stably expressed in HEK293 cells (human, UniProt Q9NP59 1-571)
T1 sequence (looked up): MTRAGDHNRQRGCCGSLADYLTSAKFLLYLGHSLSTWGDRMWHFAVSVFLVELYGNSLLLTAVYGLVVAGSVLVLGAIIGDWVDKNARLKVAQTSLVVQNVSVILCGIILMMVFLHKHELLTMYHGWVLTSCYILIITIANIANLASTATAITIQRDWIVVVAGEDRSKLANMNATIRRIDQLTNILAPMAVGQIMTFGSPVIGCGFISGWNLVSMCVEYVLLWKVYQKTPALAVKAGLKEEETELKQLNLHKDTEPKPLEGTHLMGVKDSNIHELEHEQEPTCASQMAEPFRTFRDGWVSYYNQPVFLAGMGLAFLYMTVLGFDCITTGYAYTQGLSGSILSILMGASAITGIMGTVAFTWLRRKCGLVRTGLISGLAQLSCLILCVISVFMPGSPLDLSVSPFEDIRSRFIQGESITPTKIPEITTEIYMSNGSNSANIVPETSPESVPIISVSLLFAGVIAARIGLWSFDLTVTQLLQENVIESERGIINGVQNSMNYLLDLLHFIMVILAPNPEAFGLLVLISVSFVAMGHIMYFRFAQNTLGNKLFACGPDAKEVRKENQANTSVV
Experiment: cell-based or functional assay
Numbered stars: 1 amine (or outer) side, 2 acyl side, 3 side chain; on linkers, the order of the positions; unused ones are H or OH. Side chains are listed from the residue outwards. * marks the point of attachment. γGlu = O=C(O)[C@H](CCC(=O)[*:2])N[*:1]; Palmitoyl = CCCCCCCCCCCCCCCC(=O)*; Isovaleryl = CC(C)CC(=O)*; dapa = not defined here
Each entry gets NOT MET if its Potency EC50 stays under 8 nM, and MET if its Potency EC50 is 8 nM or above.

{"columns": ["Binder", "Assigned Class"],
 "data": [
  ["DTHFPCIKFKPRSKGWECK (not fully specified; N-terminal isovaleric acid; K10(isoGlu-Palm); C-terminal NH2) [Compound 241]", "NOT MET"],
  ["Isovaleryl-DTHFPCIKFEPK([γGlu-Palmitoyl])SKGCK-NH2 (not fully specified (bridges); cysteine pairing not given here) [Compound 220]", "NOT MET"],
  ["DTHFPCIKFKPRSKGWVC (N-terminal isovaleric acid; K10(octanoic acid); C-terminal NH2) [Compound 250]", "MET"],
  ["Isovaleryl-DTHFPCIK([dapa-Palmitoyl])FEPRSKGCK-NH2 (not fully specified (bridges); cysteine pairing not given here; reading uncertain) [Compound 225]", "MET"]
]}
